Values compiled from patent US7491794B2.

biological target: NS3-NS4A protease (Hepatitis C virus genotype 1a, UniProt P27958); construct: Recombinant E. coli or Baculovirus full-length NS3 was diluted to 3.33 μM with assay buffer; made in house; host or cells: E. coli or baculovirus (BV) system; test: NS3-NS4A protease assay (NS3 inhibition assay, RETS1 substrate), Section B; assay type: biochemical; settings: read-out: NS3-NS4A IC50
Sequence (P27958 1027-1657): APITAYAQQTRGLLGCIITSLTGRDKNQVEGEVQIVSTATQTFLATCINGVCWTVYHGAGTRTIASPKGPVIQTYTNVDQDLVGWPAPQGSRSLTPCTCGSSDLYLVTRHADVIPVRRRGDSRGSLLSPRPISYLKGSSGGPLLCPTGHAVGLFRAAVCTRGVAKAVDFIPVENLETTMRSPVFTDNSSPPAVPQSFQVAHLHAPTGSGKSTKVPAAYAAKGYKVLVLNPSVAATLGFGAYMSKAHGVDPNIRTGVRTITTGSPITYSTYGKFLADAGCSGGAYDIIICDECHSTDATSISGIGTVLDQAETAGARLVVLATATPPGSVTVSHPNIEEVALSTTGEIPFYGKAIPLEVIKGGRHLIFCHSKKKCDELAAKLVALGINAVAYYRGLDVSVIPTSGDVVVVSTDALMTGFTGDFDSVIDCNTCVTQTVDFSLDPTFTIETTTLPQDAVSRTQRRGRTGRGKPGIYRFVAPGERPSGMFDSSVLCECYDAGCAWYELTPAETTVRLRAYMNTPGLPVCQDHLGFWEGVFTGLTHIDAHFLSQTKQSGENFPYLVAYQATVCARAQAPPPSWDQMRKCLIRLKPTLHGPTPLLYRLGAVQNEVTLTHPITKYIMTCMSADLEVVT
quantity: IC50

O=C(N[C@H]1CCCCC/C=C\[C@@H]2C[C@@]2(C(=O)O)NC(=O)[C@@H]2C[C@@H](OC(=O)N3Cc4ccccc4C3)CN2C1=O)OC1CCCC1 [AR00304076]    < 100 nM
O=C(N[C@H]1CCCCC/C=C\[C@@H]2C[C@@]2(C(=O)NS(=O)(=O)C2CC2)NC(=O)[C@@H]2C[C@@H](OC(=O)N3CCc4ccccc4C3)CN2C1=O)OC1CCOCC1 [AR00320082]    < 100 nM

# input Need IC50 of CC(C)(C)OC(=O)N[C@H]1CCCCC/C=C\[C@@H]2C[C@@]2(C(=O)NS(=O)(=O)c2ccc(C#N)cc2)NC(=O)[C@@H]2C[C@@H](OC(=O)N3Cc4ccccc4C3)CN2C1=O [AR00334248] , thanks.
# output < 100 nM

###

Listing of recorded pIC50 by entry.
target: NS3-NS4A protease (Hepatitis C virus genotype 1a, UniProt P27958); construct: Recombinant E. coli or Baculovirus full-length NS3 was diluted to 3.33 μM with assay buffer; made in house; host or cells: E. coli or baculovirus (BV) system; test: NS3-NS4A protease assay (NS3 inhibition assay, RETS1 substrate), Section B; assay type: biochemical; settings: read-out: NS3-NS4A IC50
pIC50: −log10 of the molar value.

Cc1nc2c(s1)CN(C(=O)O[C@@H]1C[C@H]3C(=O)N[C@]4(C(=O)O)C[C@H]4/C=C\CCCCC[C@H](NC(=O)OC(C)(C)C)C(=O)N3C1)CC2    > 4.30

# input Which pIC50 is listed for CN(C)CCOc1ccc2c(c1)CN(C(=O)O[C@@H]1C[C@H]3C(=O)N[C@]4(C(=O)O)C[C@H]4/C=C\CCCCC[C@H](NC(=O)OC(C)(C)C)C(=O)N3C1)C2 ?
# output > 6.00

# input Consider the molecule shown here: CC(C)(C)OC(=O)N[C@H]1CCCCC/C=C\[C@@H]2C[C@@]2(C(=O)O)NC(=O)[C@@H]2C[C@@H](OC(=O)N3CCc4cccc(C(F)(F)F)c4C3)CN2C1=O What is its recorded pIC50?
# output > 6.00

###

Biological target: NS3-NS4A protease (Hepatitis C virus genotype 1a, UniProt P27958)
Construct: Recombinant E. coli or Baculovirus full-length NS3 was diluted to 3.33 μM with assay buffer; made in house; host or cells: E. coli or baculovirus (BV) system
Assay: NS3-NS4A protease assay (NS3 inhibition assay, RETS1 substrate), Section B
Assay type: biochemical
Settings: read-out: NS3-NS4A IC50
Description: NS3 complex formation with NS4A-2 Recombinant E. coli or Baculovirus full-length NS3 was diluted to 3.33 μM with assay buffer and the material transferred to an eppendorf tube and place in water bath in 4° C. refrigerator. […] The plate was read in kinetic mode on the Molecular Devices SpectraMax Gemini XS plate reader. […] IC50s were determined using a four parameter curve fit equation, and converted to Ki's using the following Km's: […]
quantity: IC50

CC(C)(C)NC(=O)N[C@H]1CCCCC/C=C\[C@@H]2C[C@@]2(C(=O)NS(=O)(=O)C2CC2)NC(=O)[C@@H]2C[C@@H](OC(=O)N3Cc4ccc(Cl)cc4C3)CN2C1=O [AR00320446]    < 100 nM
CC(=O)Nc1nnc(S(=O)(=O)NC(=O)[C@@]23C[C@H]2/C=C\CCCCC[C@H](NC(=O)OC(C)(C)C)C(=O)N2C[C@H](OC(=O)N4Cc5ccccc5C4)C[C@H]2C(=O)N3)s1 [AR00334247]    < 100 nM

Okay, next one:
# input Returns the measured IC50 for the input molecule. Input: CC(C)(C)OC(=O)N[C@H]1CCCCC/C=C\[C@@H]2C[C@@]2(C(=O)NS(=O)(=O)C2CC2)NC(=O)[C@@H]2C[C@@H](OC(=O)N3CCc4c(F)cccc4C3)CN2C1=O [AR00298996]
# output < 100 nM

###

Reported values of pIC50 for individual entries
target: NS3-NS4A protease (Hepatitis C virus genotype 1a, UniProt P27958); construct: Recombinant E. coli or Baculovirus full-length NS3 was diluted to 3.33 μM with assay buffer; made in house; host or cells: E. coli or baculovirus (BV) system; test: NS3-NS4A protease assay (NS3 inhibition assay, RETS1 substrate), Section B; type: biochemical; conditions: read-out: NS3-NS4A IC50
pIC50: −log10 of the molar value.

# count of solved cases: 4
O=C(NC1CCCC1)N[C@H]1CCCCC/C=C\[C@@H]2C[C@@]2(C(=O)O)NC(=O)[C@@H]2C[C@@H](OC(=O)N3CCc4c(F)cccc4C3)CN2C1=O [AR00304077]    > 7.00
O=C(N[C@H]1CCCCC/C=C\[C@@H]2C[C@@]2(C(=O)O)NC(=O)[C@@H]2C[C@@H](OC(=O)N3Cc4cc(Cl)c(Cl)cc4C3)CN2C1=O)O[C@@H]1CCOC1 [AR00320445]    > 5.00
CC(C)(C)OC(=O)N[C@H]1CCCCCCCC2C[C@@]2(C(=O)NS(=O)(=O)C2CC2)NC(=O)[C@@H]2C[C@@H](OC(=O)N3Cc4ccccc4C3)CN2C1=O (stereo in doubt) [AR00333833]    > 7.00
COC(=O)c1ccc2c(c1)CN(C(=O)O[C@@H]1C[C@H]3C(=O)N[C@]4(C(=O)NS(=O)(=O)C5CC5)C[C@H]4/C=C\CCCCC[C@H](NC(=O)OC(C)(C)C)C(=O)N3C1)C2 [AR00365083]    > 7.00

# input Entry O=C(N[C@H]1CCCCC/C=C\[C@@H]2C[C@@]2(C(=O)NS(=O)(=O)C2CC2)NC(=O)[C@@H]2C[C@@H](OC(=O)N3CCc4ccccc4[C@@H]3CN3CCCCC3)CN2C1=O)OC1CCCC1 [AR00320556] has what pIC50?
# output > 7.00

###

Biological target: NS3-NS4A protease (Hepatitis C virus genotype 1a, UniProt P27958)
Construct: Recombinant E. coli or Baculovirus full-length NS3 was diluted to 3.33 μM with assay buffer; made in house; host or cells: E. coli or baculovirus (BV) system
Assay: NS3-NS4A protease assay (NS3 inhibition assay, RETS1 substrate), Section B
Type: biochemical
Details: read-out: NS3-NS4A IC50
Procedure: NS3 complex formation with NS4A-2 Recombinant E. coli or Baculovirus full-length NS3 was diluted to 3.33 μM with assay buffer and the material transferred to an eppendorf tube and place in water bath in 4° C. refrigerator. […] The plate was read in kinetic mode on the Molecular Devices SpectraMax Gemini XS plate reader. […] IC50s were determined using a four parameter curve fit equation, and converted to Ki's using the following Km's: […]
pIC50: −log10 of the molar value.
Item-by-item account of pIC50

Some entries whose results are on file:
O=C(N[C@H]1CCCCC/C=C\[C@@H]2C[C@@]2(C(=O)NS(=O)(=O)C2CC2)NC(=O)[C@@H]2C[C@@H](OC(=O)N3Cc4ccc(Cl)cc4C3)CN2C1=O)OC1CCCC1    > 7.00
CC(C)(C)Nc1nc2c(s1)CN(C(=O)O[C@@H]1C[C@H]3C(=O)N[C@]4(C(=O)O)C[C@H]4/C=C\CCCCC[C@H](NC(=O)OC(C)(C)C)C(=O)N3C1)CC2    > 5.00
CC(C)(C)OC(=O)N[C@H]1CCCCC/C=C\[C@@H]2C[C@@]2(C(=O)O)NC(=O)[C@@H]2C[C@@H](OC(=O)N3CCc4c(F)cccc4C3)CN2C1=O    > 6.00
CC1CN(C(=O)O[C@@H]2C[C@H]3C(=O)N[C@]4(C(=O)NS(=O)(=O)C5CC5)C[C@H]4/C=C\CCCCC[C@H](NC(=O)NC(C)(C)C)C(=O)N3C2)Cc2ccccc21 (some centres unmarked)    > 7.00

# input Name the recorded pIC50 for O=C(N[C@H]1CCCCCC=C[C@@H]2C[C@@]2(C(=O)NS(=O)(=O)C2CC2)NC(=O)[C@@H]2C[C@@H](OC(=O)N3Cc4ccccc4C3)CN2C1=O)OC1CCCC1 .
# output > 7.00

###

biological target: NS3-NS4 protease (Hepatitis C virus genotype 1a, UniProt P27958); construct: Recombinant E. coli or Baculovirus full-length NS3 was diluted to 3.33 μM with assay buffer; made in house; host or cells: E. coli or baculovirus (BV) system; assay: NS3-NS4 protease assay / NS3 inhibition assay, Section D; format: biochemical
quantity: IC50

Worked cases, answers included:
COc1ccc(C(=O)N[C@@H]2C[C@H]3C(=O)N[C@]4(C(=O)NS(=O)(=O)C5CC5)C[C@H]4/C=C\CCCCC[C@H](NC(=O)OC(C)(C)C)C(=O)N3C2)cc1C(F)(F)F    < 100 nM
CC(C)(C)OC(=O)N[C@H]1CCCCC/C=C\[C@@H]2C[C@@]2(C(=O)NS(=O)(=O)C2CC2)NC(=O)[C@@H]2C[C@@H](NC(=O)c3cc4ccccc4s3)CN2C1=O    < 100 nM

--- query ---
# input Which IC50 value is on record for COc1ccc(C(=O)N[C@@H]2C[C@H]3C(=O)N[C@]4(C(=O)NS(=O)(=O)C5CC5)C[C@H]4/C=C\CCCCC[C@H](NC(=O)OC4CCCC4)C(=O)N3C2)cc1 ?
# output < 100 nM
